Test: Pharmacokinetic parameters in preclinical species
Format: in vivo, dogs
Settings: plasma; Dog, IV, 5.8 mg/kg, mean of 3 animals; read-out: AUC24hr
readout kind: AUC(0-t) (ng·h/mL)
Write it as a number; the unit ng·h/mL goes unstated.

Request: Given Cc1cnc(CNC(=O)c2c(=O)c3ccc(N4CCCN(C)CC4)nc3n3c2sc2ccccc23)cn1 [Compound I] , state its recorded AUC(0-t).
Result: 2950

###

Experiment: Pharmacokinetic parameters in preclinical species
Type: in vivo, rats
Conditions: plasma; Rat (SD), IV, 5 mg/kg, mean of 3 animals
readout kind: half-life (h)
Write it as a number; the unit h goes unstated.

Request: Given Cc1cnc(CNC(=O)c2c(=O)c3ccc(N4CCCN(C)CC4)nc3n3c2sc2ccccc23)cn1 [Compound I] , state its recorded half-life.
Result: 9
